Where do the numbers come from? From PubChem BioAssay AID686971.

- assay comment: qHTS for induction of synthetic lethality in tumor cells producing 2HG: qHTS for the HT-1080-IDH1KD cell line
- particulars: HT-1080 IDH1 knockdown viability, ATP luminescence, 48 h; series mostly up to 46.1 µM
Hit rate of the full screen: of about 360,000 compounds, about 7,500 (2.1%) were called active. Inconclusive results (about 8%) are left out. Calls come from the whole dose curve; as a rule, active = well fitted cell-killing curve with a large enough effect; inconclusive = small, poorly fitted or top-dose-only effect, or effect the other way, or another doubt; inactive = no such curve, though single readings can be large or run the other way. Many of the other results were omitted from the sample, so actives are more common in it than they were.
// one of True = active, False = inactive, no free text

Query: Please state the recorded outcome for this compound: O=C(NN=Cc1ccccc1)c1ccccc1
Result: False

Query: Please state the recorded outcome for this compound: O=C(N/N=C/c1ccccc1O)/C(=C/c1ccccc1)CCO
Result: True

Query: Please state the recorded outcome for this compound: CC1(C(=O)NCc2ccc3c(c2)OCO3)CCN1C(=O)Cc1cccs1 (stereo not drawn)
Result: False

Query: Please state the recorded outcome for this compound: CCOC(=O)N1CCN(C(=O)c2ccc(S(=O)(=O)Nc3cccc(C(F)(F)F)c3)cc2)CC1
Result: False

Query: Please state the recorded outcome for this compound: O=C(COC(=O)Cc1ccc(Cl)cc1Cl)NCc1ccco1
Result: False

Query: Please state the recorded outcome for this compound: O=C(NCc1cccc(C(F)(F)F)c1)c1ccc2sc(COCCO)nc2c1
Result: False

Query: Please state the recorded outcome for this compound: O=C(CCC(=O)Nc1ccccc1)N/N=C/c1ccccc1F
Result: False

Query: Please state the recorded outcome for this compound: Cc1cccc(S(=O)(=O)N(C)C[C@@H]2OCc3cnnn3CCCC(=O)N([C@H](C)CO)C[C@@H]2C)c1
Result: False

Query: Please state the recorded outcome for this compound: NS(=O)(=O)c1ccc(CCNc2nc(C(F)(F)F)nc3ccccc23)cc1
Result: False

Query: Please state the recorded outcome for this compound: COc1ccc(-c2cc(NC=O)c3ncc(-c4ccccc4)n3c2)cc1OC
Result: True

Query: Please state the recorded outcome for this compound: CC(=O)Nc1ccc(Nc2cc(C)nc(Nc3ccc(NC(C)=O)cc3)n2)cc1
Result: False

Query: Please state the recorded outcome for this compound: C/C(=N\NC(=O)c1ccoc1C)c1ccccc1O
Result: True

Query: Please state the recorded outcome for this compound: O=C(NN=Cc1ccccc1O)NN=Cc1ccccc1O
Result: True

Query: Please state the recorded outcome for this compound: COc1ccc(OCC(O)CN(C)C(=O)C(C)Oc2ccccc2)cc1 (stereo not drawn)
Result: False

Query: Please state the recorded outcome for this compound: Oc1ccccc1C=NC1CCCCC1N=Cc1ccccc1O (stereo not drawn)
Result: False

Query: Please state the recorded outcome for this compound: O=C(COc1ccc(S(=O)(=O)Nc2cccc(C(F)(F)F)c2)cc1)N1CCOCC1
Result: False

Query: Please state the recorded outcome for this compound: Cc1occc1C(=O)NNC(=S)NCC(C)C
Result: False

Query: Please state the recorded outcome for this compound: CC(C)(C)c1ccc(C(=O)NCCn2c(N)c(C#N)c3nc4ccccc4nc32)cc1
Result: True

Query: Please state the recorded outcome for this compound: CCC(c1nc2ccccc2[nH]1)n1c(=O)c(-c2cccs2)nc2ccccc21 (stereo not drawn)
Result: False

Query: Please state the recorded outcome for this compound: COc1cc(OC)cc(C(=O)N[C@H](C(=O)NNC(=O)c2ccc(Br)cc2)C(C)C)c1
Result: False

Query: Please state the recorded outcome for this compound: CC1(C(=O)NS(=O)(=O)c2cccc(F)c2)CCN1C(=O)Cc1cc(F)ccc1F (stereo not drawn)
Result: False

Query: Please state the recorded outcome for this compound: COCC(C)OC(=O)c1c(N)n(CCCN2CCOCC2)c2nc3ccccc3nc12 (stereo not drawn)
Result: False

Query: Please state the recorded outcome for this compound: Nc1nc(SCC(=O)NCCN2CCOCC2)nc2sc3c(c12)CCC3
Result: False

Query: Please state the recorded outcome for this compound: COC(=O)c1ccc(-c2c(-c3ccccc3)ncc3cc(OC)c(OC)cc23)cc1
Result: False

Query: Please state the recorded outcome for this compound: CC(OC(=O)c1ccc(NC(=O)CC#N)cc1)C(=O)Nc1ccc(S(=O)(=O)N2CCCC2)cc1 (stereo not drawn)
Result: False

Query: Please state the recorded outcome for this compound: CCN(CC)C(=O)N(CC)Cc1ccccc1
Result: False

Query: Please state the recorded outcome for this compound: CN(Cc1ccccc1)CC(O)COc1ccc(CNCc2cc3ccccc3s2)cc1 (stereo not drawn)
Result: True

Query: Please state the recorded outcome for this compound: C=CCOc1ccccc1/C=N/NC(=O)Cc1ccccc1
Result: False

Query: Please state the recorded outcome for this compound: CCc1ccc(C(CNc2nc(C(F)(F)F)nc3ccccc23)N(C)C)cc1 (stereo not drawn)
Result: True

Query: Please state the recorded outcome for this compound: Cc1sc2nc(SCC(N)=O)n(C)c(=O)c2c1C
Result: False

Query: Please state the recorded outcome for this compound: COc1ccc(/C=N/NC(=O)C2CC2)c(OC)c1OC
Result: False

Query: Please state the recorded outcome for this compound: O=C(NCc1cccnc1)c1cc(C2CCCN(C(=O)C3CCCCC3)C2)on1 (stereo not drawn)
Result: False

Query: Please state the recorded outcome for this compound: CC1C(=O)N(Cc2cn(CC3CCCCC3)nn2)CCS(=O)(=O)N1Cc1ccc(-c2cccc(N(C)C)c2)cc1 (stereo not drawn)
Result: False

Query: Please state the recorded outcome for this compound: CS(=O)(=O)Nc1cccc(-c2cn3ccccc3n2)c1
Result: False

Query: Please state the recorded outcome for this compound: COc1cc(C=O)ccc1Oc1nnnn1-c1ccccc1
Result: False

Query: Please state the recorded outcome for this compound: Cc1cc(NC(=O)c2ccc(F)cc2)ccc1NC(=O)c1ccco1
Result: False

Query: Please state the recorded outcome for this compound: CN(C)C(CNC(=O)c1cc2ccccc2o1)c1ccccc1 (stereo not drawn)
Result: False

Query: Please state the recorded outcome for this compound: COc1cccc(/C=N/Nc2cc(C)nc(-c3ccccc3O)n2)c1O
Result: True
